- targetOrSystem: human mGlu2 receptor (Homo sapiens, UniProt Q14416)
- Sequence (Q14416 19-872): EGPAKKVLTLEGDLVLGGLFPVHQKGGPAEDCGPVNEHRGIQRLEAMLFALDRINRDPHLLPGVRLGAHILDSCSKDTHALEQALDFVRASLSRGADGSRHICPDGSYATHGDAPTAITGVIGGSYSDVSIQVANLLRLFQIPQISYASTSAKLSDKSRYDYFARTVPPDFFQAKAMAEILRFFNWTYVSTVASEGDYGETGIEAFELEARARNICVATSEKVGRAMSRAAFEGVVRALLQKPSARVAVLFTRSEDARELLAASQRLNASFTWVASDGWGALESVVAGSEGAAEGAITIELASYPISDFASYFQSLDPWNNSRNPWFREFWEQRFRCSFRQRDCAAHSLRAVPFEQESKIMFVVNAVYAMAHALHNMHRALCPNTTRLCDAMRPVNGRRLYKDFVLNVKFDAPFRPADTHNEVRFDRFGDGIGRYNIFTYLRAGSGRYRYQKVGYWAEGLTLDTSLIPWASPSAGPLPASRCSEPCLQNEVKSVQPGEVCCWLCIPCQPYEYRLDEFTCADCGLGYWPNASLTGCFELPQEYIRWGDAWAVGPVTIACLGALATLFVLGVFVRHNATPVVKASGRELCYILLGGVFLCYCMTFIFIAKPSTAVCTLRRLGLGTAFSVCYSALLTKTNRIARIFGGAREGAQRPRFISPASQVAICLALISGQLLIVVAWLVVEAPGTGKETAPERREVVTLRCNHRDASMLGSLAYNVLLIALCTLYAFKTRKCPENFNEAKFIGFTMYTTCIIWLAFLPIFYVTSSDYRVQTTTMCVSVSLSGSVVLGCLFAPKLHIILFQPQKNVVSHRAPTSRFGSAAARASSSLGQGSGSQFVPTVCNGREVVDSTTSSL
- assay: FLIPR intracellular Ca2+ assay, potentiation of glutamate response in HEK293 clone expressing mGlu2 receptor, rGLAST and Galpha16
- testContext: 1 μM glutamate added ten minutes after test compound, HEK293 cells with human mGlu2, rGLAST, Galpha16, read-out: EC50 values of potentiation effect to glutamate
- Description: The compounds of the present invention can be tested e.g. by evaluating intracellular Ca^2+ concentrations in cells permanently expressing human mGlu receptor, the rat glutamate transporter rGLAST and the Galpha16 subunit of the G-protein complex under standard conditions in a fluorometric imaging plate reader (FLIPR, Molecular Devices, Union City, Calif. 94587, USA) by measuring the response of the cells to a test compound in the absence of presence of glutamate. […]
Recorded EC50 by entry

Solved entries (count: 8):
- compound: "CCCC(=O)c1ccc(NCc2c(C)nn(C)c2Oc2cccc(Cl)c2)cc1 [Example 50]"
  EC50: "1000 to 10000 nM"
- compound: "COC(=O)c1ccc(NCc2c[nH]nc2-c2ccc(Cl)cc2)cc1 [Example 443]"
  EC50: "1000 to 10000 nM"
- compound: "CCCC(=O)c1ccc(NCc2ccnn2-c2ccccc2)cc1 [Example 57]"
  EC50: "1000 to 10000 nM"
- compound: "CCCC(=O)c1ccc(NCc2c[nH]cc2-c2ccccc2)cc1 [Example 523]"
  EC50: "1000 to 10000 nM"
- compound: "CCCC(=O)c1ccc(NCc2c(CSc3ccccc3)nn(C)c2Cl)cc1 [Example 52]"
  EC50: "1000 to 10000 nM"
- compound: "Cc1ccc(NCc2c[nH]nc2-c2ccc(C(F)(F)F)cc2)nc1C [Example 363]"
  EC50: "1000 to 10000 nM"
- compound: "CCCC(=O)c1ccc(NCc2cnn(Cc3ccccc3)c2)cc1 [Example 220]"
  EC50: "1000 to 10000 nM"
- compound: "CCCCN1Cc2cc(OCc3c[nH]nc3-c3cccc(F)c3)ccc2C1=O [Example 550]"
  EC50: "< 1000 nM"

Next compound, please.
Determine its reported EC50: CCC(=O)c1ccc(OCc2c[nH]nc2-c2ccc(C(F)(F)F)cc2)cc1 [Example 489]
< 1000 nM

----------
- targetOrSystem: human mGlu2 receptor (Homo sapiens)
- assay: FLIPR intracellular Ca2+ assay, potentiation of glutamate response in HEK293 clone expressing mGlu2 receptor, rGLAST and Galpha16
- testContext: 1 μM glutamate added ten minutes after test compound, HEK293 cells with human mGlu2, rGLAST, Galpha16, read-out: EC50 values of potentiation effect to glutamate
- Text: The compounds of the present invention can be tested e.g. by evaluating intracellular Ca^2+ concentrations in cells permanently expressing human mGlu receptor, the rat glutamate transporter rGLAST and the Galpha16 subunit of the G-protein complex under standard conditions in a fluorometric imaging plate reader (FLIPR, Molecular Devices, Union City, Calif. 94587, USA) by measuring the response of the cells to a test compound in the absence of presence of glutamate. […]
pEC50: −log10 of the molar value.
resultType: pEC50

Solved entries (count: 8):
- structureNotation: "CCCN1Cc2cc(NCc3c[nH]nc3-c3ccccc3)ccc2C1=O"
  targetOrSystem: "human mGlu2 receptor (Homo sapiens)"
  result: "> 6.00"
- structureNotation: "CCCC(=O)c1ccc(NCc2ccc3ncccc3c2)cc1"
  targetOrSystem: "human mGlu2 receptor (Homo sapiens)"
  result: "5.00 to 6.00"
- structureNotation: "CCCN1Cc2cc(NCc3c[nH]nc3-c3cccc(C(F)(F)F)c3)ccc2C1=O"
  targetOrSystem: "human mGlu2 receptor (Homo sapiens)"
  result: "> 6.00"
- structureNotation: "CCCC(=O)c1ccc(OCc2c[nH]nc2-c2ccc(C(F)(F)F)cc2)cc1"
  targetOrSystem: "human mGlu2 receptor (Homo sapiens)"
  result: "> 6.00"
- structureNotation: "O=C1c2ccc(OCc3c[nH]nc3-c3ccc(C(F)(F)F)cc3)cc2CN1CC(F)(F)F"
  targetOrSystem: "human mGlu2 receptor (Homo sapiens)"
  result: "> 6.00"
- structureNotation: "O=C1c2ccc(OCc3c[nH]nc3-c3ccc(F)cc3)cc2CN1CCC(F)(F)F"
  targetOrSystem: "human mGlu2 receptor (Homo sapiens)"
  result: "> 6.00"
- structureNotation: "CCCC(=O)c1ccc(NCc2ccc(-c3ccc(S(N)(=O)=O)cc3)o2)cc1"
  targetOrSystem: "human mGlu2 receptor (Homo sapiens)"
  result: "5.00 to 6.00"
- structureNotation: "CCCCN1Cc2cc(OCc3c[nH]nc3-c3cccc(C(F)(F)F)c3)ccc2C1=O"
  targetOrSystem: "human mGlu2 receptor (Homo sapiens)"
  result: "> 6.00"

Determine its reported pEC50: `CCCC(=O)c1ccc(NCc2c(C(F)(F)F)nn(C)c2Cl)cc1`
5.00 to 6.00

Determine its reported pEC50: `CS(=O)(=O)c1ccc(NCc2c[nH]nc2-c2ccc(C(F)(F)F)cc2)cc1`
5.00 to 6.00

Determine its reported pEC50: `COc1ccc(NCc2c[nH]nc2-c2ccc(C(F)(F)F)cc2)c(OC)n1`
5.00 to 6.00

Determine its reported pEC50: `CCCC(=O)c1cccc(NCc2c[nH]nc2-c2ccc(C(F)(F)F)cc2)c1`
5.00 to 6.00

Determine its reported pEC50: `CCCC(=O)c1ccc(NCc2c[nH]nc2-c2ccccc2)cc1`
> 6.00

Determine its reported pEC50: `CC(=O)c1ccc2c(c1)CCN2Cc1c[nH]nc1-c1ccc(C(F)(F)F)cc1`
5.00 to 6.00

Determine its reported pEC50: `O=C1c2ccc(OCc3c[nH]nc3-c3ccc(C(F)(F)F)cc3)cc2CN1CCBr`
> 6.00

Determine its reported pEC50: `CCCC(=O)c1ccc(NCc2csc(C(C)C)n2)cc1`
5.00 to 6.00

Determine its reported pEC50: `COc1cc(NCc2c[nH]nc2C(C)(C)C)cc(OC)c1`
5.00 to 6.00

Determine its reported pEC50: `CCCC(=O)c1ccc(NCc2c(-c3ccccc3)noc2C)cc1`
5.00 to 6.00
